Molecular target: NLRP3 inflammasome (Homo sapiens, UniProt Q96P20)
Construct: endogenous in cells
Sequence (Q96P20 whole entry): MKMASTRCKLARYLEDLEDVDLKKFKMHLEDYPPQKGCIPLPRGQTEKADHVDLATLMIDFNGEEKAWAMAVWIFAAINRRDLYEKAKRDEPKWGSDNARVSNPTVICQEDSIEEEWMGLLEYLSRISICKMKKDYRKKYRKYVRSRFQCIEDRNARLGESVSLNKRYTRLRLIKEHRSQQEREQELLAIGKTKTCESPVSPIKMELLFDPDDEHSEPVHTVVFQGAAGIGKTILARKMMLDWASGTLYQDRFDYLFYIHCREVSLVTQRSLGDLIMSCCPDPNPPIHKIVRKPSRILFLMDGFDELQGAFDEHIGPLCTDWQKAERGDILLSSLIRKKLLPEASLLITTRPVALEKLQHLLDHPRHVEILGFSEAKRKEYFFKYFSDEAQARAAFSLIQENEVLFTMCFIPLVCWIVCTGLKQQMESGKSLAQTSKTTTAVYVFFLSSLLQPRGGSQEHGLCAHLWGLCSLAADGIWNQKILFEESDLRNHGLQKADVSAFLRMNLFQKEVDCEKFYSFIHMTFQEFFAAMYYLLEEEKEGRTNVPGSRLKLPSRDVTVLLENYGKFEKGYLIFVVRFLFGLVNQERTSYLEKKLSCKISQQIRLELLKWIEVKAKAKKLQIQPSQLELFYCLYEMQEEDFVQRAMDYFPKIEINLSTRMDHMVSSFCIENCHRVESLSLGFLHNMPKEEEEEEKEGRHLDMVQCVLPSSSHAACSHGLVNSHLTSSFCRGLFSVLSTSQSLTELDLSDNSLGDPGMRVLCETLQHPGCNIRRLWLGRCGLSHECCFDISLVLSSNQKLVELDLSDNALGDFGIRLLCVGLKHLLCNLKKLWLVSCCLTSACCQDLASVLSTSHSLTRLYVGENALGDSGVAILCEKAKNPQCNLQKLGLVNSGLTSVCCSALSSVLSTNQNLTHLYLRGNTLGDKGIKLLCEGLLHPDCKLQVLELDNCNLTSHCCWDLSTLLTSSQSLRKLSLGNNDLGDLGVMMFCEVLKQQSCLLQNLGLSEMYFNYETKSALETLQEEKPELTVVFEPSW
Test: IL-1β secretion assay (NLRP3 IC50) in LPS-primed, nigericin-activated THP-1 cells, HTRF
Conditions: monocytic THP-1 cells; LPS 10 ng/mL 3 h priming, then compound + nigericin 10 μM 2 h; relative IC50, 10 concentrations, geometric mean
Where a name gives a salt, the structure may show the parent alone.
measured property: IC50 (µM)
Write down the numeric answer in µM and omit the unit.

{"compound": "Cc1cc(C)c(-c2ccc(N3CC(CO)CCC3=O)nn2)c(O)c1 (centres unmarked) [Example 235]", "study system": "NLRP3 inflammasome (Homo sapiens, UniProt Q96P20)", "endpoint value": 0.07}

-- ask // returns reported IC50 for input Cc1c(-c2ccc(Cl)cc2O)nnc(N2CCO[C@H](CO)C2)c1C [Example 81]
-- reply 0.164

-- ask // returns reported IC50 for input CC(=O)N1C[C@H]2OCCN(c3ccc(-c4c(C)cc(C(F)(F)F)cc4O)nn3)[C@H]2C1 (single isomer, unassigned) [Example 352]
-- reply 0.375

-- ask // returns reported IC50 for input Cc1cc(C(F)(F)F)cc(O)c1-c1ccc(N2CC[C@H]3CNC[C@@H]3C2=O)nn1 (racemic) [Example 269, hydrochloride]
-- reply 0.404

-- ask // returns reported IC50 for input Oc1cc(Cl)cc(Cl)c1-c1ccc(N2CCOCC2)nn1 [Example 38]
-- reply 0.09

-- ask // returns reported IC50 for input O=C1NCCCN1c1ccc(-c2c(O)cc(Cl)cc2Cl)nn1 [Example 239]
-- reply 0.2

-- ask // returns reported IC50 for input [2H]C([2H])(O)[C@@H]1CN(c2ccc(-c3c(C)cc(Cl)cc3O)nn2)CCO1 [Example 169]
-- reply 0.008

-- ask // returns reported IC50 for input Cc1cc(O)c(-c2nnc(N3CCO[C@H](CO)C3)cc2C)c(Cl)c1 [Example 177]
-- reply 0.091

-- ask // returns reported IC50 for input Cc1cc(C(F)(F)F)cc(O)c1-c1ccc(N2C[C@@H](N)CC2=O)nn1 [Example 250]
-- reply 0.249

-- ask // returns reported IC50 for input Cc1cc(C(F)(F)F)cc(O)c1-c1ccc(N2CC[C@H]3[C@@H]2CCN3C)nn1 (racemic) [Example 484]
-- reply 0.025

-- ask // returns reported IC50 for input Cc1cc(N2CCO[C@H](CO)C2)nnc1-c1c(C)cc(Cl)cc1O [Example 149]
-- reply 0.052

----------
Reported pIC50 values are given for each entry in this list.
Target: NLRP3 inflammasome (Homo sapiens, UniProt Q96P20)
Construct: endogenous in cells
Test: IL-1β secretion assay (NLRP3 IC50) in LPS-primed, nigericin-activated THP-1 cells, HTRF
Conditions: monocytic THP-1 cells; LPS 10 ng/mL 3 h priming, then compound + nigericin 10 μM 2 h; relative IC50, 10 concentrations, geometric mean
Please express pIC50 as -log10 of the molar concentration.

{"compound": "Cc1cc(C)c(-c2ccc(N3CC[C@@]4(CN(C)CCO4)C3)nn2)c(O)c1", "pIC50": 6.09}
{"compound": "CCc1cc(Cl)cc(O)c1-c1ccc(N2CCO[C@@H]3CCN(CC)C[C@@H]32)nn1", "pIC50": 9.00}
{"compound": "CCN1CC[C@H]2CCN(c3cc(C(F)F)c(-c4ccc(C)cc4O)nn3)[C@H]2C1 (single isomer, unassigned)", "pIC50": 9.00}
{"compound": "Cc1cc(C(F)(F)F)cc(O)c1-c1ccc(N2CCO[C@H]3CNC[C@H]32)nn1 (racemic)", "pIC50": 6.94}
{"compound": "Cc1cc(C(F)(F)F)cc(O)c1-c1ccc(N2CCO[C@@H](CO)C2)nn1", "pIC50": 7.14}

Would you kindly look at the next entry?
-- ask Missing value: pIC50, NLRP3 inflammasome (Homo sapiens, UniProt Q96P20), entry `Cc1cc(C)c(-c2ccc(N3C[C@H](CO)O[C@H](C)C3)nn2)c(O)c1` . Fill in?
-- reply 7.55
